Biological target: GLP-1 receptor (UniProt P43220 24-463, limits assumed)
Sequence (P43220 24-463 limits assumed): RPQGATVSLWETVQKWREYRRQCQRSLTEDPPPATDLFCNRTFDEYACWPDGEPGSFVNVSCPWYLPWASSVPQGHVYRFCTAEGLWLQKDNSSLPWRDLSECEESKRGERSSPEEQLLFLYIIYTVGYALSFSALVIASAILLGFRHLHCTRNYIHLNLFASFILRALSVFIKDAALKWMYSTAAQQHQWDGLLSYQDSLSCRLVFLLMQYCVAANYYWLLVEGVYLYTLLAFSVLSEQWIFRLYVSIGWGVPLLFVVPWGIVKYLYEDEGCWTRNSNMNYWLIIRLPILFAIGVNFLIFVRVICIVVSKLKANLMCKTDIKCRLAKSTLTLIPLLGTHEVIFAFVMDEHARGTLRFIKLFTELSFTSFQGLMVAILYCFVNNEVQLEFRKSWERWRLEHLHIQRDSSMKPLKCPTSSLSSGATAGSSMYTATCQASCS
Assay: cell-based or functional assay
Bridge positions count the residues as written; N and C are the ends. Ends that are not written are not given here. PLA = phenyl lactic acid
Assign GLP-1 EC50 to each entry below.
One number for each entry, in nM.

>>> assay_value("FTSEYSKYLDERRAKDFVQWLMNTGPSSGAPPPS (lactam 11-15) [E9, E16K20(lactam) glucagon(6-39) (Table 13, peptide 3)]")
36
>>> assay_value("FTSEYSKYLDERRAQDFVQWLMNTGPSSGAPPPS (lactam 7-11) [E9, K12E16(lactam) glucagon(6-39) (Table 13, peptide 2)]")
63
>>> assay_value("FTSDYSKYLDERRAQDFVQWLMNTGPSSGAPPPS (lactam 7-11) [D9, K12E16(Lactam) glucagon(6-39) (Table 13, peptide 4)]")
119

Next binder, GLP-1 EC50 to be filled in.
The binder identified as {PLA}-TSEYSKYLDERRAQDFVQWLMNTGPSSGAPPPS (lactam 6-10) [[PLA6, E9, K12E16(Lactam) glucagon(6-39) (Table 13, peptide 5)] registered its GLP-1 EC50 at 6

Origin of measurements: patent US20110288003A1
